These entries and their values trace back to patent US9073876B2.

# Test system: leukotriene pathway in human whole blood (LTB4 levels)
# TEST_PROTOCOL: Human whole blood assay (LTB4)
# Type: cell-based
# STATED_CONDITIONS: human whole blood diluted 1:1 in RPMI, stimulated with calcium ionophore A23187; single replicate
ASSAY_READOUT: IC50 (µM)
Answer format: numeric, µM implied, no suffix.

Known IC50 results, listed for orientation:
# STRUCTURE_NOTATION, TEST_TARGET, IC50 / µM
rows = [
    ("CC(C)c1ccnc(Oc2c(C3CCC3)ccc(-c3cnc(N)nc3)c2F)n1", "leukotriene pathway in human whole blood (LTB4 levels)", 0.304),
    ("NC(=O)c1cccc(COc2c(C3CCC3)ccc(-c3cnc(N)cn3)c2F)c1", "leukotriene pathway in human whole blood (LTB4 levels)", 0.276),
    ("Cn1ccc(COc2c(C3CCC3)ccc(-c3cnc(N)cn3)c2F)n1", "leukotriene pathway in human whole blood (LTB4 levels)", 0.3),
]

Attention now shifts to the item below.
# query: IC50 | item Nc1cnc(-c2ccc(C3CCC3)c(Oc3cnc4cc(F)c(F)cc4n3)c2F)cn1 | system: leukotriene pathway in human whole blood (LTB4 levels)
0.0853

* * *

human FLAP (Homo sapiens (Human), UniProt P20292): reported Ki for various compounds.
Sequence (P20292 whole entry): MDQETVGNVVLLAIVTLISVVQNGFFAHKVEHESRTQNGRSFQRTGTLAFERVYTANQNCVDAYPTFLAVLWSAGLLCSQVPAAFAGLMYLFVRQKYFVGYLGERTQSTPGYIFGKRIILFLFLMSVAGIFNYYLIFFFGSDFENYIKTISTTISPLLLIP
Counter-ions that a name gives are not always drawn.
Just the number in nM, nothing appended.

# COMPOUND, ENDPOINT_VALUE
records = [
    ("Nc1cnc(-c2ccc(C3CC3)c(Oc3ncccn3)c2F)cn1", 100),
    ("N#Cc1ccc(COc2c(C3CCC3)ccc(-c3cnc(N)cn3)c2F)cn1 [Example 290, trifluoroacetic acid salt]", 39.9),
    ("Nc1cnc(-c2ccc(C3CCC3)c(OCCN3C(=O)c4ccccc4C3=O)c2F)cn1", 16.5),
]

Next item in the queue.
Please give the measured Ki for this compound: N#Cc1cc(Oc2c(C3CCC3)ccc(-c3cnc(N)cn3)c2F)ccn1
8.9

* * *

Consider the following compounds and their measured pIC50 readings.
# Tested on: leukotriene pathway in human whole blood (LTB4 levels)
# TEST_PROTOCOL: Human whole blood assay (LTB4)
# Assay type: cell-based
# STATED_CONDITIONS: human whole blood diluted 1:1 in RPMI, stimulated with calcium ionophore A23187; single replicate
Structures can show the parent of a compound that is named as a salt.
Please treat pIC50 as minus the base-10 logarithm of the molar concentration.

Reference set (5 entries):
# COMPOUND, pIC50
measured = [
    ("CC(C)CNc1nccc(Oc2c(C3CCC3)ccc(-c3cnc(N)cn3)c2F)n1 [Example 261, trifluoroacetic acid salt]", 7.40),
    ("Nc1cnc(-c2ccc(C3CCC3)c(Oc3cc(O)ncn3)c2F)cn1", 6.76),
    ("CN(C)c1cc(Oc2c(C3CCC3)ccc(-c3cnc(N)cn3)c2F)ncn1", 7.07),
    ("Nc1cnc(-c2ccc(C3CCC3)c(OCc3ccc(C(=O)O)o3)c2F)cn1", 5.00),
    ("CC(C)(C)c1ccc(-c2cnc(N)cn2)c(F)c1O[Si](C)(C)C(C)(C)C", 5.87),
]

Note: attention shifts to another entry.
For the compound Nc1cnc(-c2ccc(C3CCC3)c(Oc3cc(Cl)nc(N)n3)c2F)cn1 , what pIC50 is on record?
7.42

* * *

# IC50 annotations
# Test system: leukotriene pathway in human whole blood (LTB4 levels)
# TEST_PROTOCOL: Human whole blood assay (LTB4)
# Type: cell-based
# STATED_CONDITIONS: human whole blood diluted 1:1 in RPMI, stimulated with calcium ionophore A23187; single replicate
// units = µM; emit number, no label

# MOLECULE, READOUT_UNIT, ENDPOINT_VALUE
data = [
    ("Nc1cnc(-c2ccc(C3CCC3)c(OCc3cccc(C(F)(F)F)c3)c2F)cn1", "µM", 0.525),
    ("CC(C)(C)c1ccc(-c2cnc(N)nc2)c(F)c1Oc1nccc(N)n1", "µM", 0.0511),
]

Which measured IC50 value corresponds to CC(C)(C)OC(=O)N1CCC(COc2c(C3CCC3)ccc(-c3cnc(N)cn3)c2F)C1 (centres unmarked) ?
0.417

Can you check Nc1cnc(-c2ccc(C3CCC3)c(Oc3cccnn3)c2F)cn1 next?
0.135

Follow-up entry: Nc1cnc(-c2ccc(C3CCCCC3)c(Oc3nccc(N)n3)c2F)cn1
0.0527
